Data origin: patent US20240400614A1

Biological target: MMP-2 (Homo sapiens)
Construct: purchased SIGMA PF023
Sequence (P08253 110-660): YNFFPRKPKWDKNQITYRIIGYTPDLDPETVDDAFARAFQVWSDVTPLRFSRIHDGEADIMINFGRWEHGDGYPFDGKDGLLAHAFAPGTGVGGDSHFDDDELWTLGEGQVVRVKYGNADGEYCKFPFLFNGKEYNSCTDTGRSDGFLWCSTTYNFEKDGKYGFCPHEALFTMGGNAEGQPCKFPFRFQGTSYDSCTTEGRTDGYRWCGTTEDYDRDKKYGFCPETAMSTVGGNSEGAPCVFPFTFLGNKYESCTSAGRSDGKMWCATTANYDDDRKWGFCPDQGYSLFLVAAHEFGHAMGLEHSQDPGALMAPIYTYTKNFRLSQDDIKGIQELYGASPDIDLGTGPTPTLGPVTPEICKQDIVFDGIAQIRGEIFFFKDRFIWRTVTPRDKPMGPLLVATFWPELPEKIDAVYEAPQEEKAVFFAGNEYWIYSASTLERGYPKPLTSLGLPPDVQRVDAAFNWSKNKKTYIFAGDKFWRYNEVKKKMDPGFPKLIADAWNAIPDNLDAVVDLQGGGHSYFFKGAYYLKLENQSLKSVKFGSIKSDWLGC
Test: FRET peptide cleavage efficiency with MMP-2
Format: biochemical
Details: t = 120 min; 200 uM linker, 1 ug/ml protease, 37° C., buffer C pH 7.5
Square brackets hold non-standard residues; d marks the D form. Ends that are not written are not given here. Tyr(3-NO2) = N[C@@H](Cc1ccc(O)c([N+](=O)[O-])c1)C(=O)O; 2Abz = Nc1ccccc1C(=O)O
assay-readout: % cleavage MMP-2 t = 120 min (%)

[[record]]
sequence = "SSLQSSPG ([2Abz]SSLQSSPG[Tyr(3-NO2)]-NH2) [LNK066]"
system_name = "MMP-2 (Homo sapiens)"
numeric_result = 9

[[record]]
sequence = "SGRVANLVG (not fully specified (N-terminus, C-terminus)) [LNK017]"
system_name = "MMP-2 (Homo sapiens)"
numeric_result = 99

[[record]]
sequence = "SQLYSSPG ([2Abz]SQLYSSPG[Tyr(3-NO2)]-NH2) [LNK068]"
system_name = "MMP-2 (Homo sapiens)"
numeric_result = 18

[[record]]
sequence = "RQRRSAAPLGLAG ([2Abz]RQRRSAAPLGLAG[Tyr(3-NO2)]-NH2) [LNK028]"
system_name = "MMP-2 (Homo sapiens)"
numeric_result = 99

[[record]]
sequence = "SGRVANPLGGSG ([2Abz]SGRVANPLGGSG[Tyr(3-NO2)]-NH2) [LNK053]"
system_name = "MMP-2 (Homo sapiens)"
numeric_result = 8

[[record]]
sequence = "RGRRPLGLAGGSG ([2Abz]RGRRPLGLAGGSG[Tyr(3-NO2)]-NH2) [LNK051]"
system_name = "MMP-2 (Homo sapiens)"
numeric_result = 100

[[record]]
sequence = "SGRVLTLRKAGPAGLVG ([2Abz]SGRVLTLRKAGPAGLVG[Tyr(3-NO2)]-NH2) [LNK011]"
system_name = "MMP-2 (Homo sapiens)"
numeric_result = 98

[[record]]
sequence = "PASNRRLPLGLAG ([2Abz]PASNRRLPLGLAG[Tyr(3-NO2)]-NH2) [LNK018]"
system_name = "MMP-2 (Homo sapiens)"
numeric_result = 87

[[record]]
sequence = "SSLYSSPG ([2Abz]SSLYSSPG[Tyr(3-NO2)]-NH2) [LNK065]"
system_name = "MMP-2 (Homo sapiens)"
numeric_result = 21


---

Target: matriptase (Homo sapiens, UniProt Q9Y5Y6)
Construct: purchased R&D Systems 3946-SEB
Sequence (Q9Y5Y6 615-855 limits assumed): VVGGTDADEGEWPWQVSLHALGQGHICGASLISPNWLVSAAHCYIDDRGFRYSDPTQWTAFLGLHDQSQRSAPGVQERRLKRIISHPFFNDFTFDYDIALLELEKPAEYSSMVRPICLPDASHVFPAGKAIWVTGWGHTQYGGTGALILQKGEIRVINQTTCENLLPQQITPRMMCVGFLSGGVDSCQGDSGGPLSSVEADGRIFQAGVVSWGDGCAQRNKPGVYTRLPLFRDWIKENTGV
Experiment: FRET peptide cleavage efficiency with matriptase
Type: biochemical
Details: t = 60 min; standard conditions (Table 8)
Square brackets hold non-standard residues; d marks the D form. Ends that are not written are not given here. Tyr(3-NO2) = N[C@@H](Cc1ccc(O)c([N+](=O)[O-])c1)C(=O)O; Nle = CCCC[C@H](N)C(=O)O; 2Abz = Nc1ccccc1C(=O)O
Entries annotated with measured % cleavage Matriptase t = 60 min
assay-readout: % cleavage Matriptase t = 60 min (%)

[[record]]
substance = "RGRKSPYMLQG ([2Abz]RGRKSPYMLQG[Tyr(3-NO2)]-NH2) [LNK037]"
unit_spec = "%"
numeric_result = 100

[[record]]
substance = "RGRKSPY-Nle-LQG ([2Abz]RGRKSPY[Nle]LQG[Tyr(3-NO2)]-NH2) [LNK038]"
unit_spec = "%"
numeric_result = 100

[[record]]
substance = "RGRKPQPLVD ([2Abz]RGRKPQPLVD[Tyr(3-NO2)]-NH2) [LNK039]"
unit_spec = "%"
numeric_result = 100

[[record]]
substance = "RGRRVANLVG ([2Abz]RGRRVANLVG[Tyr(3-NO2)]-NH2) [LNK033]"
unit_spec = "%"
numeric_result = 100

[[record]]
substance = "RQRKVANLVG ([2Abz]RQRKVANLVG[Tyr(3-NO2)]-NH2) [LNK032]"
unit_spec = "%"
numeric_result = 100

[[record]]
substance = "SGRVAPY-Nle-LQG ([2Abz]SGRVAPY[Nle]LQG[Tyr(3-NO2)]-NH2) [LNK043]"
unit_spec = "%"
numeric_result = 73

[[record]]
substance = "RGRKSPQPLVD ([2Abz]RGRKSPQPLVD[Tyr(3-NO2)]-NH2) [LNK040]"
unit_spec = "%"
numeric_result = 100

[[record]]
substance = "RGRKPY-Nle-LQG ([2Abz]RGRKPY[Nle]LQG[Tyr(3-NO2)]-NH2) [LNK036]"
unit_spec = "%"
numeric_result = 100


---

target: MMP-9 (Homo sapiens, UniProt P14780); construct: purchased SIGMA PF024; assay: FRET peptide cleavage efficiency with MMP-9 (standard pH 7.5; also pH 6.5); format: biochemical; conditions: t = 15 min (Table 9)
Sequence (P14780 94-707): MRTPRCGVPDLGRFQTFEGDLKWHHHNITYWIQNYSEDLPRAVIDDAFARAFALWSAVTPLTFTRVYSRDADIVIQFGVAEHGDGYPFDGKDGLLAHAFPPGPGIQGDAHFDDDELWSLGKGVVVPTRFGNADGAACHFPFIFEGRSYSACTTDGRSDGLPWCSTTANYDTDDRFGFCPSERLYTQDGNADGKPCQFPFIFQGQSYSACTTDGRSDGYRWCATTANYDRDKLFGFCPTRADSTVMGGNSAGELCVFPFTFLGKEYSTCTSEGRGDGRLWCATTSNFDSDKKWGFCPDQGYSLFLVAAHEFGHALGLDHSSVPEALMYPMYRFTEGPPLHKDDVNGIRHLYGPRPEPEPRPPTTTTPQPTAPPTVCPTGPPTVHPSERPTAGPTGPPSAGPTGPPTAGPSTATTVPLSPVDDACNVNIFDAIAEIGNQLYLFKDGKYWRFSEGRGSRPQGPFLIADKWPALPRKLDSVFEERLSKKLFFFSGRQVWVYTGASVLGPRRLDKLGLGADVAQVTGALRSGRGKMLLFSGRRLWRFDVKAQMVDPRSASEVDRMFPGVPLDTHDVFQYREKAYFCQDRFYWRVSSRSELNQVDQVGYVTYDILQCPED
Square brackets hold non-standard residues; d marks the D form. Ends that are not written are not given here. Tyr(3-NO2) = N[C@@H](Cc1ccc(O)c([N+](=O)[O-])c1)C(=O)O; Nle = CCCC[C@H](N)C(=O)O; 2Abz = Nc1ccccc1C(=O)O
assay-readout: % cleavage MMP-9 t = 15 min (%)

[[record]]
substance = "RGRRVANLVG ([2Abz]RGRRVANLVG[Tyr(3-NO2)]-NH2) [LNK033]"
assay_readout = "% cleavage MMP-9 t = 15 min"
numeric_result = 81

[[record]]
substance = "SGRHSSKLQPLGYFGKL ([2Abz]SGRHSSKLQPLGYFGKL[Tyr(3-NO2)]-NH2) [LNK063]"
assay_readout = "% cleavage MMP-9 t = 15 min"
numeric_result = 23

[[record]]
substance = "RGRKPYMLQG ([2Abz]RGRKPYMLQG[Tyr(3-NO2)]-NH2) [LNK035]"
assay_readout = "% cleavage MMP-9 t = 15 min"
numeric_result = 42

[[record]]
substance = "RGRRAANLVRPLGYFGKL ([2Abz]RGRRAANLVRPLGYFGKL[Tyr(3-NO2)]-NH2) [LNK060]"
assay_readout = "% cleavage MMP-9 t = 15 min"
numeric_result = 32

[[record]]
substance = "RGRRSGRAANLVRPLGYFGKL ([2Abz]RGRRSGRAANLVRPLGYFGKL[Tyr(3-NO2)]-NH2) [LNK059]"
assay_readout = "% cleavage MMP-9 t = 15 min"
numeric_result = 39

[[record]]
substance = "RGRKSPYMLQG ([2Abz]RGRKSPYMLQG[Tyr(3-NO2)]-NH2) [LNK037]"
assay_readout = "% cleavage MMP-9 t = 15 min"
numeric_result = 46

[[record]]
substance = "RGRKSPY-Nle-LQG ([2Abz]RGRKSPY[Nle]LQG[Tyr(3-NO2)]-NH2) [LNK038]"
assay_readout = "% cleavage MMP-9 t = 15 min"
numeric_result = 23

[[record]]
substance = "RQRKVANLVG ([2Abz]RQRKVANLVG[Tyr(3-NO2)]-NH2) [LNK032]"
assay_readout = "% cleavage MMP-9 t = 15 min"
numeric_result = 53

[[record]]
substance = "SGRVAGLVG ([2Abz]SGRVAGLVG[Tyr(3-NO2)]-NH2) [LNK016]"
assay_readout = "% cleavage MMP-9 t = 15 min"
numeric_result = 10


---

Molecular target: MMP-2 (Homo sapiens)
Construct: purchased SIGMA PF023
Sequence (P08253 110-660): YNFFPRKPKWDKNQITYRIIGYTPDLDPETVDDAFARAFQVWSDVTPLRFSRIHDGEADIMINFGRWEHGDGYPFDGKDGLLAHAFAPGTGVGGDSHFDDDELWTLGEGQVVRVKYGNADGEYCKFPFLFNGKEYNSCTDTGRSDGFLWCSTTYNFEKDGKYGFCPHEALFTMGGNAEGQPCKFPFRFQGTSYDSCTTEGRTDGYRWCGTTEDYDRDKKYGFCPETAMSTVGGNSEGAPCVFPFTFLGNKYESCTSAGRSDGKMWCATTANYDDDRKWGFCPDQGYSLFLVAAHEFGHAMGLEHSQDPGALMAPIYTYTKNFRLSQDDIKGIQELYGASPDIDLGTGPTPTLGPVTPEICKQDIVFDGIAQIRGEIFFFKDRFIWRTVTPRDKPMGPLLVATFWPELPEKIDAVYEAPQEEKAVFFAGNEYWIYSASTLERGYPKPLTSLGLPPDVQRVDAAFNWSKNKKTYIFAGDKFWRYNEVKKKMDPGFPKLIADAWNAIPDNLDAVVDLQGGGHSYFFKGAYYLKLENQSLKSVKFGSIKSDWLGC
Assay: FRET peptide cleavage efficiency with MMP-2
Type: biochemical
Settings: t = 15 min (Table 9)
Square brackets hold non-standard residues; d marks the D form. Ends that are not written are not given here. Tyr(3-NO2) = N[C@@H](Cc1ccc(O)c([N+](=O)[O-])c1)C(=O)O; Nle = CCCC[C@H](N)C(=O)O; 2Abz = Nc1ccccc1C(=O)O
Please note: % cleavage MMP-2 t = 15 min exactly at 70% is No. Only values below 70% get Yes.

[[record]]
substance = "SSRGPYMLQG ([2Abz]SSRGPYMLQG[Tyr(3-NO2)]-NH2) [LNK022]"
system_name = "MMP-2 (Homo sapiens)"
label_value = "Yes"

[[record]]
substance = "RGRKSPYMLQG ([2Abz]RGRKSPYMLQG[Tyr(3-NO2)]-NH2) [LNK037]"
system_name = "MMP-2 (Homo sapiens)"
label_value = "Yes"

[[record]]
substance = "SGRVANPLGGSG ([2Abz]SGRVANPLGGSG[Tyr(3-NO2)]-NH2) [LNK053]"
system_name = "MMP-2 (Homo sapiens)"
label_value = "Yes"

[[record]]
substance = "RGRKSPY-Nle-LQG ([2Abz]RGRKSPY[Nle]LQG[Tyr(3-NO2)]-NH2) [LNK038]"
system_name = "MMP-2 (Homo sapiens)"
label_value = "Yes"

[[record]]
substance = "SGRVQPLVD (not fully specified (N-terminus, C-terminus)) [LNK047]"
system_name = "MMP-2 (Homo sapiens)"
label_value = "Yes"

[[record]]
substance = "SGRVYMLQG ([2Abz]SGRVYMLQG[Tyr(3-NO2)]-NH2) [LNK044]"
system_name = "MMP-2 (Homo sapiens)"
label_value = "Yes"

[[record]]
substance = "HSSKLQYFGKL ([2Abz]HSSKLQYFGKL[Tyr(3-NO2)]-NH2) [LNK061]"
system_name = "MMP-2 (Homo sapiens)"
label_value = "Yes"

[[record]]
substance = "SGRPLGYFGKL ([2Abz]SGRPLGYFGKL[Tyr(3-NO2)]-NH2) [LNK056]"
system_name = "MMP-2 (Homo sapiens)"
label_value = "No"

[[record]]
substance = "RGRKSQPLVD ([2Abz]RGRKSQPLVD[Tyr(3-NO2)]-NH2) [LNK041]"
system_name = "MMP-2 (Homo sapiens)"
label_value = "Yes"

[[record]]
substance = "RGRRVANLVG ([2Abz]RGRRVANLVG[Tyr(3-NO2)]-NH2) [LNK033]"
system_name = "MMP-2 (Homo sapiens)"
label_value = "No"

[[record]]
substance = "RGRRAANLVRPLGYFGKL ([2Abz]RGRRAANLVRPLGYFGKL[Tyr(3-NO2)]-NH2) [LNK060]"
system_name = "MMP-2 (Homo sapiens)"
label_value = "No"

[[record]]
substance = "RGRKPQPLVD ([2Abz]RGRKPQPLVD[Tyr(3-NO2)]-NH2) [LNK039]"
system_name = "MMP-2 (Homo sapiens)"
label_value = "Yes"

[[record]]
substance = "RQRRSPLGLAG ([2Abz]RQRRSPLGLAG[Tyr(3-NO2)]-NH2) [LNK010]"
system_name = "MMP-2 (Homo sapiens)"
label_value = "Yes"

[[record]]
substance = "RGRKPYMLQG ([2Abz]RGRKPYMLQG[Tyr(3-NO2)]-NH2) [LNK035]"
system_name = "MMP-2 (Homo sapiens)"
label_value = "Yes"

[[record]]
substance = "RGRRGP ([2Abz]RGRRGP[Tyr(3-NO2)]-NH2) [LNK048]"
system_name = "MMP-2 (Homo sapiens)"
label_value = "Yes"

[[record]]
substance = "RGRRVANYFGKL ([2Abz]RGRRVANYFGKL[Tyr(3-NO2)]-NH2) [LNK055]"
system_name = "MMP-2 (Homo sapiens)"
label_value = "No"

